Read-out: Peroxisomal acyl-coenzyme A oxidase 1 (ACOX1) gene, ACOX1 (gene 51)
Test: LTEA_HepaRG_ACOX1: Life Technologies and Expression Analysis (LTEA) Assay for Peroxisomal acyl-coenzyme A oxidase 1 (ACOX1) gene using HepaRG (AID 2283467)
Settings: mRNA level, 48 h; actives raise or lower the signal
Experimental: LTEA_HepaRG is a cell based, multiplexed-readout assay that uses HepaRG, a human liver cell line, with measurements taken at 48 hours after chemical dosing on a 96-well plate.LTEA_HepaRG_ACOX1 is one of 102 assay component(s) measured in the LTEA HepaRG cell culture assay. It is a marker of Steatosis.Data from the assay component LTEA_HepaRG_ACOX1 was analyzed into 1 endpoint. […]
Active and inactive are the calls of the source. The calls were made as follows: active = hit-call score of the fitted dose curve at least 0.9, where 1 is the maximum; inactive = score below 0.9.
Classes used: class 1 (active), class 0 (inactive)

>  <Molecule>
C[C@](N)(Cc1ccc(O)c(O)c1)C(=O)O

>  <Classification>
class 0

$$$$
>  <Molecule>
O=C1CCC(N2C(=O)c3ccccc3C2=O)C(=O)N1 (centres undefined)

>  <Classification>
class 0

$$$$
>  <Molecule>
CC(C)CCO

>  <Classification>
class 0

$$$$
>  <Molecule>
O=C(CCCCCCCCc1cccnc1)N1CCC(C=C(c2ccccc2)c2ccccc2)CC1

>  <Classification>
class 1

$$$$
>  <Molecule>
CCc1cc(SCc2sc(-c3ccc(C(F)(F)F)cc3)nc2CN2CCN(c3ccc(OC)cc3)CC2)ccc1OCC(=O)O

>  <Classification>
class 1

$$$$
>  <Molecule>
CC(=O)c1ccc2c(c1)[C@H](NC(=O)c1ccc(F)cc1)[C@@H](O)C(C)(C)O2

>  <Classification>
class 0

$$$$
>  <Molecule>
CC(C)CCCCCCOC(=O)c1ccc(C(=O)OCCCCCCC(C)C)c(C(=O)OCCCCCCC(C)C)c1

>  <Classification>
class 0

$$$$
>  <Molecule>
CC[C@H](C)C(=O)O[C@H]1C[C@@H](C)C=C2C=C[C@H](C)[C@H](CC[C@@H]3C[C@@H](O)CC(=O)O3)[C@H]21

>  <Classification>
class 0

$$$$
>  <Molecule>
O=C1CCCCCN1

>  <Classification>
class 0

$$$$
>  <Molecule>
CC(C)=CCC/C(C)=C\CO

>  <Classification>
class 0

$$$$
>  <Molecule>
O=C(O)c1cccc(N(Cc2cccnc2)c2ccc(OC(F)F)c(OC(F)F)c2)c1

>  <Classification>
class 0

$$$$
>  <Molecule>
Nc1nc2ncc(CNc3ccc(C(=O)N[C@@H](CCC(=O)O)C(=O)O)cc3)nc2c(=O)[nH]1

>  <Classification>
class 0

$$$$
>  <Molecule>
O=C(O)c1cc(N=Nc2ccc(S(=O)(=O)Nc3ccccn3)cc2)ccc1O

>  <Classification>
class 0

$$$$
>  <Molecule>
Cc1ccc(O)cc1

>  <Classification>
class 0

$$$$

----------
Read-out: Tissue Factor, F3 (gene 2152)
Experiment: BSK_LPS_TissueFactor: BioMAP Diversity Plus: LPS Assay for Tissue Factor Biomarker Activity (AID 2283084)
Settings: primary human HUVEC with PBMC; actives raise or lower the signal
The source made the active and inactive calls. How the source made its calls: active means hit-call score of the fitted dose curve at least 0.9, where 1 is the maximum; inactive means score below 0.9.

>  <Compound>
CN(C)c1ccc(Cc2ccc(N(C)C)cc2)cc1

>  <outcome>
inactive

$$$$
>  <Compound>
COCCOCCOCCOC

>  <outcome>
inactive

$$$$
>  <Compound>
C=CC(=C)CCC=C(C)C

>  <outcome>
inactive

$$$$
